molecular target: LRRK2^RCKW (Homo sapiens, UniProt Q5S007); construct: LRRK2 R1327 to E2527; His6-Z-tag (TEV cleavable) (N, cleaved yes); host or cells: Sf9 insect cells (baculovirus); test: Biochemical LRRK2 activity assay (PhosphoSense, AssayQuant SOX peptide AQT0615); details: LRRK2^RCKW kinase activity, in vitro
Sequence (Q5S007 1327-2527): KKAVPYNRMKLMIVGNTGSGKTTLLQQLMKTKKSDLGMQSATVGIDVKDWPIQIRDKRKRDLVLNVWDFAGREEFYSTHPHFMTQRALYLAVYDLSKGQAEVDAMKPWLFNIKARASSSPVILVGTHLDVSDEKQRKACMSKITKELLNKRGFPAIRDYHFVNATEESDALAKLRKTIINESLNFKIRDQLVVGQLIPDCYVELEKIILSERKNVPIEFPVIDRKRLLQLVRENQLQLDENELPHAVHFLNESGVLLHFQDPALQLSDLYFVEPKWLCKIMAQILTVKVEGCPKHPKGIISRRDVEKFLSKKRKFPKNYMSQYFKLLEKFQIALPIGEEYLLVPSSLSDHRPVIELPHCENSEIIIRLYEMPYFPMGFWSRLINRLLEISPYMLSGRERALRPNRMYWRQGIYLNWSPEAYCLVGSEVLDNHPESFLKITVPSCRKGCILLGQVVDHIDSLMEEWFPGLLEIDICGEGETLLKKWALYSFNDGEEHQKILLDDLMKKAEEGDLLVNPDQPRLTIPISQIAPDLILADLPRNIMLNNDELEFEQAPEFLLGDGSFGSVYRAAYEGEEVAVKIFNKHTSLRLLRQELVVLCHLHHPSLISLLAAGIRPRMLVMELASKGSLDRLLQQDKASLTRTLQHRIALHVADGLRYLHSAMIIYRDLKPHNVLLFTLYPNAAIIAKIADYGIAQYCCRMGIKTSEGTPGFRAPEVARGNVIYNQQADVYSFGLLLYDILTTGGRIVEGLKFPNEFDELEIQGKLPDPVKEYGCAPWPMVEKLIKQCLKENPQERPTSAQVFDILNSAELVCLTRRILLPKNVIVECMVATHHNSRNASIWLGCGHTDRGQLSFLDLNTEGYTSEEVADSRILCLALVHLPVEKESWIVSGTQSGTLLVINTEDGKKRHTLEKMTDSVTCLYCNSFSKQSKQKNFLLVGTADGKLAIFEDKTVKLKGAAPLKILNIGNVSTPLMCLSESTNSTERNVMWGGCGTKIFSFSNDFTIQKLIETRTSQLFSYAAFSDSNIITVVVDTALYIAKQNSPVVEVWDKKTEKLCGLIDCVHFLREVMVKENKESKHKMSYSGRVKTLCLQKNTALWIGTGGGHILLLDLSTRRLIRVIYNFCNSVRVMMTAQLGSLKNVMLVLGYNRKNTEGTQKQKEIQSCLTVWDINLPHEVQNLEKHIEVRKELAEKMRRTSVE
Recorded metric: pIC50
Give bare numbers, as −log10 of the molar value.

Solved cases below.
O=C(Nc1cccc(-c2c[nH]c3ncnc(N4CCOCC4)c23)c1)C1(C(=O)Nc2cc(Br)c(F)cc2F)CC1 [Compound 25] | 6.09
O=C(Nc1ccccc1)C1(C(=O)Nc2cccc(-c3c[nH]c4ncnc(N5CCOCC5)c34)c2)CC1 [Compound 12] | 6.46
Cc1ccc(NC(=O)C2(C(=O)Nc3ccc(F)cc3)CC2)cc1-c1c[nH]c2ncnc(N3CCOCC3)c12 [Compound 5] | 5.02
Cc1ccc(-c2c[nH]c3ncnc(N4CCOCC4)c23)cc1NC(=O)C1(C(=O)Nc2ccc(F)cc2)CC1 [Compound 7] | 4.98
O=C(Nc1cccc(-c2c[nH]c3ncnc(N4CCOCC4)c23)c1)C1(C(=O)Nc2cccc3c2CCC3)CC1 [Compound 11] | 6.00

The following compounds each have a reported value; give each one's pIC50.
1. COc1cc(NC(=O)C2(C(=O)Nc3cccc(-c4c[nH]c5ncnc(N6CCOCC6)c45)c3)CC2)ccc1F [Compound 21]
2. CC(C)(C)c1cccc(NC(=O)C2(C(=O)Nc3cccc(-c4c[nH]c5ncnc(N6CCOCC6)c45)c3)CC2)c1 [Compound 22]

Result ::
[6.48, 6.05]
